Would you kindly list TGI for each of these molecules?
System: KM12 colon
assay-method-text: NCI tumour cell line growth inhibition, 48 h

Provide the reported TGI (system: KM12 colon) for CCOC(=O)N1CCN(Cc2cc(=O)n3cc(C)ccc3n2)CC1
> 100 µM

Provide the reported TGI (system: KM12 colon) for OB([O][Hg][c]1ccccc1)[O][Hg][c]1ccccc1
3.04 µM

Provide the reported TGI (system: KM12 colon) for CSCCC(NCc1c(O)ccc2ccc(=O)oc12)C(=O)O (stereo unspecified)
> 100 µM

Provide the reported TGI (system: KM12 colon) for CNNC1=NS(=O)(=O)c2cc(C)c(Cl)cc2S1
> 10 µM

Provide the reported TGI (system: KM12 colon) for CC(=O)[CH-]C(=O)c1ccccc1.CC(=O)[CH-]C(=O)c1ccccc1.CCN(CC)CC[O-].CCN(CC)CC[O-].Cl.[Ti+4]
59.6 µM

Provide the reported TGI (system: KM12 colon) for O=c1c(Cl)nnc2sc3ccccc3n12
> 100 µM

Sourced from PubChem BioAssay (NCI)
